Reference for the values: ChEMBL document CHEMBL4689842

- System: HEK-293T
- ASSAY EXPLANATION: Multiplex assay against HEK293T
- Type: toxicity, cell-based
- TEST CONTEXT: human, 24 h, 10 µM, compound concentration 10 uM, replicate 2
Population Membrane Permeable-Phenotype (%) of 7% or higher: y. Under 7%: n.

Consider the worked cases shown below.
>>> category_label("CCCCN(CC)c1nc(C)nc2c1c(C)cn2-c1c(C)cc(C)cc1C.Cl")
"n"
>>> category_label("CCCCCNC(=N)N/N=C/c1c[nH]c2ccc(OC)cc12.O=C(O)/C=C\\C(=O)O [TEGASEROD MALEATE]")
"y"
>>> category_label("N#Cc1cccc(C(=O)Nc2cc(-c3ccccc3)nn2-c2ccccc2)c1")
"y"
>>> category_label("CC[C@@H]1C(=O)N(C)c2cnc(Nc3ccc(C(=O)NC4CCN(C)CC4)cc3OC)nc2N1C1CCCC1")
"y"
>>> category_label("CC(Cc1ccc(O)c(O)c1)C(C)Cc1ccc(O)c(O)c1 (configuration not stated) [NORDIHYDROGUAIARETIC ACID]")
"n"

Qu. Entry CCCc1cc(C)[nH]c(=O)c1CNC(=O)c1cc(-c2ccc(N3CCN(C(C)C)CC3)nc2)cc2c1cnn2C(C)C : is its Population Membrane Permeable-Phenotype (%) no less than 7%?
Ans. n

Qu. Kindly determine if Population Membrane Permeable-Phenotype (%) recorded for Cl.Cn1c2c(c3ccc(Cl)c(Cl)c31)C(C#N)C1(CCNCC1)NC2=O (configuration not stated) is above or exactly 7%.
Ans. y

Qu. Quick check, Population Membrane Permeable-Phenotype (%) >= 7%? CC(C)c1cc(Nc2nc(N3CCC[C@H](N)C3)ncc2C(N)=O)cc(C(C)C)n1
Ans. y

Qu. In plain terms: is recorded Population Membrane Permeable-Phenotype (%) at least 7% for N#CCNC(=O)c1ccc(-c2ccnc(Nc3ccc(N4CCOCC4)cc3)n2)cc1 ?
Ans. y
